Values compiled from patent US20050113283A1.

- targetOfAssay: Edg-6 (Homo sapiens)
- Sequence (O95977 whole entry): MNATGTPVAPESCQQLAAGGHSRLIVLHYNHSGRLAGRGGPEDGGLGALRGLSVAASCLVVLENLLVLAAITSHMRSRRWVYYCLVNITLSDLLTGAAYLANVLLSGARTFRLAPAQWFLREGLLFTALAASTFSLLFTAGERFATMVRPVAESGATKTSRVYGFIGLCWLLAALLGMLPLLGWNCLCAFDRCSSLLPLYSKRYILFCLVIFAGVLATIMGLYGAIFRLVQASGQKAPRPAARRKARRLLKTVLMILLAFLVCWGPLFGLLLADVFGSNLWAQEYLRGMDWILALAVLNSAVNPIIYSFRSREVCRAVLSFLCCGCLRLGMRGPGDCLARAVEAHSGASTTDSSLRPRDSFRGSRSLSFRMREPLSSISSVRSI
- assaySummary: Calcium mobilization assay (FLIPR), HTC cells expressing Edg 6
- conditionSet: agonist
pEC50: −log10 of the molar value.
Entries and their pEC50

Entry FC(F)(F)c1ccc2nnc(-c3c(Cl)cccc3Cl)n2c1 : reported pEC50 = ? < 4.60

I have this molecule here, COc1cc2c(cc1OC)C(c1c(Cl)cccc1Cl)NC(=O)C2 (stereo not drawn) , and I need its recorded pEC50. < 4.60

Further cases:
So what does the record say about pEC50 for FC(F)(F)c1ccc2nnc(-c3cccc(Cl)c3Cl)n2c1 ? < 4.60
